# Test system: Escherichia coli TOP10
# assay.summary: shrunken log2 fold change of peptide-encoding DNA abundance (4.5 h post-induction vs induction); higher = less antimicrobial activity (less host growth inhibition)
# condition.details: time post-induction: 4.5 h; library: site-saturation at positions 5, 18, 19, 20
We'd kindly ask you to apply these shrunken log2 fold change classes: bottom range = under -0.02, center range = from -0.02 up to 0.3, top range = 0.3 and over

Example results:
>>> df
          monomer_sequence  class_assignment
0  RRIRARPPRLPRPRPRPCWRPRP      bottom range
1  RRIRGRPPRLPRPRPRPQLSPRP      center range
2  RRIRGRPPRLPRPRPRPDGAPRP         top range
3  RRIRRRPPRLPRPRPRPHDEPRP      center range
4  RRIRNRPPRLPRPRPRPVRGPRP         top range
5  RRIRCRPPRLPRPRPRPVNSPRP      bottom range

Q. Lab note: sort RRIRNRPPRLPRPRPRPWREPRP into the matching shrunken log2 fold change band.
A. center range

Q. Lab note: sort RRIRDRPPRLPRPRPRPARAPRP into the matching shrunken log2 fold change band.
A. top range

Q. Lab note: sort RRIRCRPPRLPRPRPRPYVWPRP into the matching shrunken log2 fold change band.
A. bottom range

Q. Lab note: sort RRIRQRPPRLPRPRPRPRKPPRP into the matching shrunken log2 fold change band.
A. center range

----------
shrunken log2 fold change for assorted sequences
# Test system: Escherichia coli TOP10
# assay.summary: shrunken log2 fold change of peptide-encoding DNA abundance (4.5 h post-induction vs induction); higher = less antimicrobial activity (less host growth inhibition)
# condition.details: time post-induction: 4.5 h; library: site-saturation at positions 5, 18, 19, 20
Just the number, please.

          monomer_sequence         measured_target  result_value
0  RRIRNRPPRLPRPRPRPYNYPRP  Escherichia coli TOP10        -0.067
1  RRIRCRPPRLPRPRPRPRDHPRP  Escherichia coli TOP10         0.197
2  RRIRRRPPRLPRPRPRPYWEPRP  Escherichia coli TOP10        0.0331

Q. Look up shrunken log2 fold change: RRIRKRPPRLPRPRPRPHEYPRP
A. -0.091

Q. Look up shrunken log2 fold change: RRIRCRPPRLPRPRPRPHMNPRP
A. -0.843

Q. Look up shrunken log2 fold change: RRIRTRPPRLPRPRPRPGWSPRP
A. 0.354

Q. Look up shrunken log2 fold change: RRIRERPPRLPRPRPRPRLKPRP
A. -0.0205

----------
# System: Escherichia coli TOP10;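 also: peptides expressed intracellularly from a pBAD plasmid library in pooled LB shake-flask culture, induced with 0.3% L-arabinose, DNA abundance read by NGS, three biological replicates, DESeq2 with apeglm shrinkage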
# assay.summary: shrunken log2 fold change of peptide-encoding DNA abundance (4.5 h post-induction vs induction); higher = less antimicrobial activity (less host growth inhibition)
# condition.details: time post-induction: 4.5 h; library: site-saturation at positions 5, 18, 19, 20
shrunken log2 fold change for assorted sequences
Just the number, please.

Before answering, review these 6 worked examples.
>>> df
          monomer_sequence          measurement_label  result_value
0  RRIRNRPPRLPRPRPRPDANPRP  shrunken log2 fold change        -0.318
1  RRIRCRPPRLPRPRPRPTIMPRP  shrunken log2 fold change        -0.562
2  RRIRFRPPRLPRPRPRPMWHPRP  shrunken log2 fold change        0.0814
3  RRIRYRPPRLPRPRPRPVYRPRP  shrunken log2 fold change        -0.158
4  RRIRFRPPRLPRPRPRPGAKPRP  shrunken log2 fold change         0.118
5  RRIRGRPPRLPRPRPRPTQWPRP  shrunken log2 fold change         0.387

Q. Look up shrunken log2 fold change: RRIRMRPPRLPRPRPRPCMFPRP
A. -0.038

Q. Look up shrunken log2 fold change: RRIRNRPPRLPRPRPRPKEAPRP
A. -0.00208
